System Name: human GLUT1 (Homo sapiens, UniProt P11166)
Construct: expressed in transfected cells
Sequence (P11166 whole entry): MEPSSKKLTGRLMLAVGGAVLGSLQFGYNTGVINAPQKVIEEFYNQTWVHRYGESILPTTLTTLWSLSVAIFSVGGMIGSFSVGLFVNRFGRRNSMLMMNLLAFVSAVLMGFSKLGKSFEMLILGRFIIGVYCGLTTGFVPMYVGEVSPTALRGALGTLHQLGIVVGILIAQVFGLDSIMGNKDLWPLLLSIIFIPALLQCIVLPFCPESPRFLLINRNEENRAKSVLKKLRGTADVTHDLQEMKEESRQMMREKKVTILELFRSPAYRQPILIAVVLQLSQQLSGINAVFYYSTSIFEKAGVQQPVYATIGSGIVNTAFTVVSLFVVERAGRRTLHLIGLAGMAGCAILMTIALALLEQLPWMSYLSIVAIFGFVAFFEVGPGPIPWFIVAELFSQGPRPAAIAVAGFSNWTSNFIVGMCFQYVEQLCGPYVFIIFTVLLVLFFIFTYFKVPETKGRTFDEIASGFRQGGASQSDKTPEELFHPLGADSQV
Assay Name: [3H]-deoxy-D-glucose uptake assay, GLUT1
Format: cell-based
Test Context: [3H]-deoxy-D-glucose uptake in HEK293 cells stably expressing human GLUT1
Protocol: HEK293 cells were engineered to stably express either human GLUT1, GLUT2, GLUt3 or GLUT4 by transfection with the pReceiver-Lv105 plasmid, containing either hGLUT1, hGLUT2, hGLUT3, or hGLUT4 gene constructs with lipofectamine 2000, hGLUT1- hGLUT2- hGLUT3- or hGLUT4-overexpressing polyclonal populations were isolated under purinomycin selective pressure (1 μg/ml) and maintained in Dulbecco's modified Eagle's medium supplemented with 1 μg/ml purinomycin+10% foetal bovine serum (FBS). […]

>  <Smiles>
Cc1ccc(-c2nc3ccc(-c4ccccc4)cn3c2CN2CCOCC2)cc1

>  <GLUT1 pIC50>
++ (pIC50 5.00-5.99)

$$$$
>  <Smiles>
CC(=O)N1CCN(Cc2c(-c3ccc(Cl)cc3Cl)nc3cnc(N(C)S(C)(=O)=O)cn23)CC1

>  <GLUT1 pIC50>
+++ (pIC50 ≧ 6.00)

$$$$
>  <Smiles>
Fc1cccc(F)c1-c1ccc2nc(-c3ccc(Cl)cc3)c(CN3CCOCC3)n2c1

>  <GLUT1 pIC50>
+++ (pIC50 ≧ 6.00)

$$$$
>  <Smiles>
O=C(C1CC1)N1CCN(Cc2c(-c3cccc([N+](=O)[O-])c3)nc3ccc(-c4ccccc4)cn23)CC1

>  <GLUT1 pIC50>
++ (pIC50 5.00-5.99)

$$$$
>  <Smiles>
Clc1ccc(-c2nc3ncc(-c4ccccc4)cn3c2CN2CCOCC2)cc1

>  <GLUT1 pIC50>
+− (pIC50 < 4.00)

$$$$
>  <Smiles>
COc1cccc(-c2nc3ccc(-c4ccccc4F)cn3c2CN2CCN(C(=O)C3CCC3)CC2)c1

>  <GLUT1 pIC50>
+++ (pIC50 ≧ 6.00)

$$$$
>  <Smiles>
O=C(c1cscn1)N1CCN(Cc2c(-c3ccc(Cl)cc3)nc3ccc(-c4ccccc4)cn23)CC1

>  <GLUT1 pIC50>
+++ (pIC50 ≧ 6.00)

$$$$
>  <Smiles>
c1ccc(-c2ccc3nc(C4CCOCC4)c(CN4CCOCC4)n3c2)cc1

>  <GLUT1 pIC50>
+− (pIC50 < 4.00)

$$$$
>  <Smiles>
CS(=O)(=O)Nc1ccc2nc(-c3ccc(Cl)cc3Cl)c(CN3CCOCC3)n2c1

>  <GLUT1 pIC50>
+++ (pIC50 ≧ 6.00)

$$$$
>  <Smiles>
COCC(=O)N1CCN(Cc2c(-c3ccc(Cl)cc3)nc3ccc(N(C)S(C)(=O)=O)cn23)CC1

>  <GLUT1 pIC50>
+++ (pIC50 ≧ 6.00)

$$$$
>  <Smiles>
COCC(=O)N1CCN(Cc2c(-c3ccc(Cl)cc3)nc3ccc(NS(C)(=O)=O)cn23)CC1

>  <GLUT1 pIC50>
+++ (pIC50 ≧ 6.00)

$$$$
>  <Smiles>
CC(=O)N1CCN(Cc2c(-c3ccc(Cl)cc3)nc3cnc(-c4ccccc4)cn23)CC1

>  <GLUT1 pIC50>
+++ (pIC50 ≧ 6.00)

$$$$
>  <Smiles>
Clc1ccc(-c2nc3ccc(-c4cncnc4)cn3c2CN2CCOCC2)cc1

>  <GLUT1 pIC50>
+ (pIC50 4.00-4.99)

$$$$
>  <Smiles>
COc1ccc(C(=O)N2CCN(Cc3c(-c4ccc(F)cc4)nc4ccc(-c5ccccc5)cn34)CC2)cc1

>  <GLUT1 pIC50>
+++ (pIC50 ≧ 6.00)

$$$$
>  <Smiles>
O=C(c1ccncc1)N1CCN(Cc2c(-c3ccc(Cl)cc3)nc3ccc(-c4c(F)cccc4F)cn23)CC1

>  <GLUT1 pIC50>
+++ (pIC50 ≧ 6.00)

$$$$
>  <Smiles>
Clc1ccc(-c2nc3ccc(-c4ccccc4Cl)cn3c2CN2CCOCC2)cc1

>  <GLUT1 pIC50>
+++ (pIC50 ≧ 6.00)

$$$$
>  <Smiles>
Clc1ccc(-c2nc3cnc(C4CC4)cn3c2CN2CCn3ncnc3C2)c(Cl)c1

>  <GLUT1 pIC50>
+++ (pIC50 ≧ 6.00)

$$$$
>  <Smiles>
O=C(c1ccncc1)N1CCN(Cc2c(-c3ccc(Cl)cc3)nc3ccc(-c4ccccc4)cn23)CC1

>  <GLUT1 pIC50>
+++ (pIC50 ≧ 6.00)

$$$$
>  <Smiles>
c1ccc(-c2ccc3nc(-c4cccnc4)c(CN4CCOCC4)n3c2)cc1

>  <GLUT1 pIC50>
+ (pIC50 4.00-4.99)

$$$$
>  <Smiles>
N#Cc1ccccc1-c1ccc2nc(-c3ccc(Cl)cc3)c(CN3CCN(C(=O)c4ccncc4)CC3)n2c1

>  <GLUT1 pIC50>
+++ (pIC50 ≧ 6.00)

$$$$
>  <Smiles>
COCCNC(=O)CCc1c(-c2ccc([N+](=O)[O-])cc2)nc2ccc(-c3ccccc3)cn12

>  <GLUT1 pIC50>
+− (pIC50 < 4.00)

$$$$
>  <Smiles>
CN(c1ccc2nc(-c3ccc(Cl)cc3Cl)c(CN3CCN(C(=O)C(C)(C)O)CC3)n2c1)S(C)(=O)=O

>  <GLUT1 pIC50>
+++ (pIC50 ≧ 6.00)

$$$$
>  <Smiles>
O=C(c1nccs1)N1CCN(Cc2c(-c3ccc(Cl)cc3)nc3ccc(-c4ccccc4)cn23)CC1

>  <GLUT1 pIC50>
+++ (pIC50 ≧ 6.00)

$$$$
>  <Smiles>
CC(C)(O)C(=O)N1CCN(Cc2c(-c3ccc(Cl)cc3Cl)nc3ccc(NS(C)(=O)=O)cn23)CC1

>  <GLUT1 pIC50>
+++ (pIC50 ≧ 6.00)

$$$$
>  <Smiles>
O=C(c1ccccn1)N1CCN(Cc2c(-c3ccc(Cl)cc3)nc3ccc(-c4ccccc4)cn23)CC1

>  <GLUT1 pIC50>
+++ (pIC50 ≧ 6.00)

$$$$

###

System Name: human GLUT1 (Homo sapiens)
Construct: expressed in transfected cells
Assay Name: [3H]-deoxy-D-glucose uptake assay, GLUT1
Format: cell-based
Test Context: [3H]-deoxy-D-glucose uptake in HEK293 cells stably expressing human GLUT1
Endpoint: GLUT1 pIC50

>  <Compound>
COCC(=O)N1CCN(Cc2c(-c3ccc(Cl)cc3Cl)nc3ccc(-c4ncon4)cn23)CC1

>  <Endpoint>
GLUT1 pIC50

>  <Result>
+++ (pIC50 ≧ 6.00)

$$$$
>  <Compound>
Fc1cccnc1-c1ccc2nc(-c3ccc(Cl)cc3)c(CN3CCOCC3)n2c1

>  <Endpoint>
GLUT1 pIC50

>  <Result>
++ (pIC50 5.00-5.99)

$$$$
>  <Compound>
Clc1ccc(-c2nc3cnc(C4CC4)cn3c2CN2CCn3ncnc3C2)cc1

>  <Endpoint>
GLUT1 pIC50

>  <Result>
+++ (pIC50 ≧ 6.00)

$$$$
>  <Compound>
CC(=O)N1CCN(Cc2c(-c3ccc(Cl)cc3)nc3ccc(NS(=O)(=O)C(C)C)cn23)CC1

>  <Endpoint>
GLUT1 pIC50

>  <Result>
++ (pIC50 5.00-5.99)

$$$$
>  <Compound>
Clc1ccc(-c2nc3ccc(-c4nccs4)cn3c2CN2CCOCC2)cc1

>  <Endpoint>
GLUT1 pIC50

>  <Result>
+++ (pIC50 ≧ 6.00)

$$$$
>  <Compound>
CC(C)(C)OC(=O)N1CCN(C(=O)c2c(-c3ccc(Cl)cc3)nc3ccc(-c4ccccc4)cn23)CC1

>  <Endpoint>
GLUT1 pIC50

>  <Result>
+− (pIC50 < 4.00)

$$$$
>  <Compound>
Cn1cc(C(=O)N2CCN(Cc3c(-c4ccc(Cl)cc4)nc4ccc(-c5ccccc5)cn34)CC2)cn1

>  <Endpoint>
GLUT1 pIC50

>  <Result>
+++ (pIC50 ≧ 6.00)

$$$$
>  <Compound>
Clc1ccc(-c2nc3ccc(-c4ncon4)cn3c2CN2CCn3ncnc3C2)c(Cl)c1

>  <Endpoint>
GLUT1 pIC50

>  <Result>
+++ (pIC50 ≧ 6.00)

$$$$
>  <Compound>
c1ccc(-c2ccc3nc(C4CCCCC4)c(CN4CCOCC4)n3c2)cc1

>  <Endpoint>
GLUT1 pIC50

>  <Result>
++ (pIC50 5.00-5.99)

$$$$
>  <Compound>
Clc1ccc(-c2nc3ccc(-c4ncccn4)cn3c2CN2CCOCC2)cc1

>  <Endpoint>
GLUT1 pIC50

>  <Result>
++ (pIC50 5.00-5.99)

$$$$
>  <Compound>
O=C(c1ccc(Cl)cc1)N1CCN(Cc2c(-c3ccc(Cl)cc3)nc3ccc(-c4ccccc4)cn23)CC1

>  <Endpoint>
GLUT1 pIC50

>  <Result>
+++ (pIC50 ≧ 6.00)

$$$$
>  <Compound>
CS(=O)(=O)Nc1ccc2nc(-c3ccc(Cl)cc3Cl)c(CN3CCN4C(=O)CCC4C3)n2c1 (centres unmarked)

>  <Endpoint>
GLUT1 pIC50

>  <Result>
+++ (pIC50 ≧ 6.00)

$$$$
>  <Compound>
O=C(C1CC1)N1CCN(Cc2c(-c3ccc(Cl)cc3)nc3ccc(-c4ccccc4)cn23)CC1

>  <Endpoint>
GLUT1 pIC50

>  <Result>
+++ (pIC50 ≧ 6.00)

$$$$
>  <Compound>
COc1ccccc1-c1nc2ccc(-c3ccccc3)cn2c1CN1CCOCC1

>  <Endpoint>
GLUT1 pIC50

>  <Result>
+ (pIC50 4.00-4.99)

$$$$
>  <Compound>
FC(F)(F)c1nnc2n1CCN(Cc1c(-c3ccc(Cl)cc3)nc3ccc(-c4ccccc4)cn13)C2

>  <Endpoint>
GLUT1 pIC50

>  <Result>
++ (pIC50 5.00-5.99)

$$$$
>  <Compound>
CC(=O)N1CCN(Cc2c(-c3ccc(Cl)cc3)nc3ccc(C4CC4)cn23)CC1

>  <Endpoint>
GLUT1 pIC50

>  <Result>
++ (pIC50 5.00-5.99)

$$$$
>  <Compound>
c1ccc(-c2ccc3nc(-c4ccccc4)c(CN4CCOCC4)n3c2)cc1

>  <Endpoint>
GLUT1 pIC50

>  <Result>
+ (pIC50 4.00-4.99)

$$$$
>  <Compound>
Clc1ccc(-c2nc3ccc(-c4ccccc4)cn3c2CN2CCSCC2)cc1

>  <Endpoint>
GLUT1 pIC50

>  <Result>
+− (pIC50 < 4.00)

$$$$
>  <Compound>
Clc1ccccc1-c1nc2ccc(-c3ccccc3)cn2c1CN1CCOCC1

>  <Endpoint>
GLUT1 pIC50

>  <Result>
++ (pIC50 5.00-5.99)

$$$$
>  <Compound>
CC(=O)N1CCN(Cc2c(-c3ccc(Cl)cc3)nc3ccc(N(C)S(=O)(=O)C4CC4)cn23)CC1

>  <Endpoint>
GLUT1 pIC50

>  <Result>
+++ (pIC50 ≧ 6.00)

$$$$
>  <Compound>
Cc1ccccc1-c1ccc2nc(-c3ccc(Cl)cc3)c(CN3CCOCC3)n2c1

>  <Endpoint>
GLUT1 pIC50

>  <Result>
+++ (pIC50 ≧ 6.00)

$$$$
>  <Compound>
O=C(c1cccc(F)c1)N1CCN(Cc2c(-c3ccc(Cl)cc3)nc3ccc(C4CC4)cn23)CC1

>  <Endpoint>
GLUT1 pIC50

>  <Result>
+++ (pIC50 ≧ 6.00)

$$$$
>  <Compound>
COCC(=O)N1CCN(Cc2c(-c3ccc(Cl)cc3)nc3ccc(-c4ccccc4C#N)cn23)CC1

>  <Endpoint>
GLUT1 pIC50

>  <Result>
+++ (pIC50 ≧ 6.00)

$$$$
